The measurements presented in this section are drawn from patent US5747336A.

experimental-endpoint: pIC50
pIC50 here: minus log base 10 of the concentration, concentration in moles per litre.

Here CCN(CC)CC1CCCCN1CC(=O)N1c2ccccc2C(=O)Nc2cccnc21 (stereo not shown) was tested on human m3 receptor (Hm3) (Homo sapiens, UniProt P20309), and its pIC50 came to 5.51

* * *

experimental-endpoint: pKi
Note: pKi values are expressed as the negative base-10 logarithm of concentration in M.

Result for CCN(CC)CC1CCCCN1CC(=O)N1c2ccccc2C(=O)Nc2cccnc21 (stereo not shown) , tested on human m3 receptor (Hm3) (Homo sapiens), pKi: 6.09

* * *

Target sequence: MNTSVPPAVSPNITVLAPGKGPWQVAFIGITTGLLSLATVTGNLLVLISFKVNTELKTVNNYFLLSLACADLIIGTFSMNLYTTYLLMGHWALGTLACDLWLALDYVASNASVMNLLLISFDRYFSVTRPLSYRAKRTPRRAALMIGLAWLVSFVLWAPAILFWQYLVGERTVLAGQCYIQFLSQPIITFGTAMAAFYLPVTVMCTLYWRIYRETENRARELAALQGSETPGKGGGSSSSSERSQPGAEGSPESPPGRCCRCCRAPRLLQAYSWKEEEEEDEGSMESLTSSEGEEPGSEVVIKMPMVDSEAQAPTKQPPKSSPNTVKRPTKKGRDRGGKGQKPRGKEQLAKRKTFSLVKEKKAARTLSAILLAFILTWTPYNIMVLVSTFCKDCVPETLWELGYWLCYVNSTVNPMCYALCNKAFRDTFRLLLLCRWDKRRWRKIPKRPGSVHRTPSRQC
experimental-endpoint: pKi
Interpret pKi as the negative base-10 log of the concentration measured in mol/L.

Noted for CCN(CC)CC1CCCCN1CC(=O)N1c2ccccc2C(=O)Nc2cccnc21 (stereo not shown) [AF-DX 116] : its pKi reads 5.89
